- system: EPHB1 (UniProt P54762)
- Sequence (P54762 whole entry, looked up): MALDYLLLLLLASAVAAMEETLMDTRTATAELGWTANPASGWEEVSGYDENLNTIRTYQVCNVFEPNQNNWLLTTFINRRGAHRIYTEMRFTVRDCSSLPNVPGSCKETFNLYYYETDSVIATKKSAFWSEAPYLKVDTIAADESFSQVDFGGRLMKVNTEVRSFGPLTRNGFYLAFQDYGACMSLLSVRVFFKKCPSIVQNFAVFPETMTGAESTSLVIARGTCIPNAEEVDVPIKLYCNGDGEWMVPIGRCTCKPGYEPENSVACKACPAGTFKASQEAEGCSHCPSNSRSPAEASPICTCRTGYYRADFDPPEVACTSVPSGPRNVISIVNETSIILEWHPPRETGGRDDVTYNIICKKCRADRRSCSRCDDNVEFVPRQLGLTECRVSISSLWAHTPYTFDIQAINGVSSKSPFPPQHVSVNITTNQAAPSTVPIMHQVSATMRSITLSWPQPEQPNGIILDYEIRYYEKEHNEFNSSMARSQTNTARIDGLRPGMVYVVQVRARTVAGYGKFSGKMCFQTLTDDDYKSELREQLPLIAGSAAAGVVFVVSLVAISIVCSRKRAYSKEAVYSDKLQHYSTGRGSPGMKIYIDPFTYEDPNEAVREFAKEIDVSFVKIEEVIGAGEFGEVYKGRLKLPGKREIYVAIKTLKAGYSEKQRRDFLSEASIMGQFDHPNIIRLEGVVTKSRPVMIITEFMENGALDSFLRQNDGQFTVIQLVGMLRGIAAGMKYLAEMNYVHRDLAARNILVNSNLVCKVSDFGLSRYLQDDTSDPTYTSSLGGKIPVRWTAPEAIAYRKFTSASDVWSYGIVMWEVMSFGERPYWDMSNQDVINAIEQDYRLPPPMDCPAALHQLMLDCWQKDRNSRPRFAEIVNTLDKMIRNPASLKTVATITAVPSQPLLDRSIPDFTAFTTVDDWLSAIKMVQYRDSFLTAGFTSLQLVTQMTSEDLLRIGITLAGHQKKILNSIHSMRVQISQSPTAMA
- assay.method.text: phosphorylation enrichment, bacterial display (enrichment ratio); higher = better substrate or ligand; peptides without Tyr show the background;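 further: 11-residue human phosphosite peptides and single-mutation variants displayed on the E. coli surface, counted by deep sequencing, each peptide's frequency after selection divided by its frequency in the unselected input library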;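 further: frequency after pTyr selection over input frequency; kinase dosed for 20-30% of maximal phosphorylation in three min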

{"columns": ["sequence.entry", "phosphorylation enrichment"],
 "data": [
  ["YGSGNYNVFGN [HNRNPA2B1_Y300_D302V]", 0.666],
  ["FSLPAFMDRRD [COX4I1_Y38_Y38F]", 0.396],
  ["LGIDRYHAIVF [NPSR1_Y147_S143G_YF]", 1.22]
]}

---

The entries below are paired with their reported phosphorylation enrichment.
- Tested on: AncSZ
- assay.method.text: phosphorylation enrichment, bacterial display (enrichment ratio); higher = better substrate or ligand; peptides without Tyr show the background

{"columns": ["sequence.entry", "system", "phosphorylation enrichment"],
 "data": [
  ["CTTIHYFFMCN [TP53_Y234_N235Y_YF]", "AncSZ", 0.966],
  ["QEEPEYWDQET [HLA-A_Y83_G80E]", "AncSZ", 2.08],
  ["KDFETYQSFQN [CTNND2_Y1157_P1159S_YF]", "AncSZ", 0.958],
  ["PNRILYGDFWQ [MYH6_Y717_R721W]", "AncSZ", 1.1],
  ["AVAFVYFKSIG [ADGRL4_Y301_YF]", "AncSZ", 1.38],
  ["LFMGDYVGRGY [PPP2CA_Y86_D88G]", "AncSZ", 1.53],
  ["RLLRGHDQYAY [HLA-B_Y137]", "AncSZ", 0.672],
  ["EREFKYGAHKF [OAT_Y50_N54K_YF]", "AncSZ", 0.599],
  ["EPGSLYGCGGG [ATM_Y2019_D2016G]", "AncSZ", 0.77],
  ["TISPYYCQSLF [CRYAA_Y48_R49C]", "AncSZ", 1.1],
  ["KLIMECLPFGS [JAK2_Y931_Y931C_YF]", "AncSZ", 1.24],
  ["SLRAHYDTPRS [DOK7_Y405]", "AncSZ", 0.428],
  ["LKALHYMVQTS [SACS_Y3367]", "AncSZ", 0.808],
  ["RKLASYRSCLL [DHX37_Y1080]", "AncSZ", 0.75],
  ["YRQLQYCPSVE [CTNND2_Y508]", "AncSZ", 1.11],
  ["CSEEMYRLMLQ [RET_Y981]", "AncSZ", 1.4],
  ["SREDIYKRNIE [PDE4DIP_Y45]", "AncSZ", 0.659],
  ["LTRDIYKNDFF [ROS1_Y2110_A2106T_YF]", "AncSZ", 0.974],
  ["RLPNGYGLAFR [DLK1_Y262_S260N_YF]", "AncSZ", 1.5],
  ["FDGGCYEQLFV [MC4R_Y41_S36Y_YF]", "AncSZ", 2.53]
]}
